Target: tetanus neurotoxin (TeNT), authentic tetanus holotoxin (Clostridium tetani, UniProt P04958 2-1315)
Sequence (P04958 2-457 limits assumed, chain 1 of 2): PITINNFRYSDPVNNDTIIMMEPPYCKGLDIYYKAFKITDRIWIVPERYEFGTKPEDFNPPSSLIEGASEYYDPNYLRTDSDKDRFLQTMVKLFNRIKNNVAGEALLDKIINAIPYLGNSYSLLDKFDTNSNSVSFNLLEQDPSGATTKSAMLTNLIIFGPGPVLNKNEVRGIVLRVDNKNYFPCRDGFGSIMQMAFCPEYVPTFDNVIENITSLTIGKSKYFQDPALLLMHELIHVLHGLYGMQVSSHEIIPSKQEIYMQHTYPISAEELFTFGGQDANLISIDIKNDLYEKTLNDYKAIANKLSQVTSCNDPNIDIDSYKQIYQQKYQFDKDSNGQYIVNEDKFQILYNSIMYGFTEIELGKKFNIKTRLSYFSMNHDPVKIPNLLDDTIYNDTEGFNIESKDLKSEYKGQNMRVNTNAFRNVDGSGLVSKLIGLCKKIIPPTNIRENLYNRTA
Sequence (P04958 458-1315 limits assumed, chain 2 of 2): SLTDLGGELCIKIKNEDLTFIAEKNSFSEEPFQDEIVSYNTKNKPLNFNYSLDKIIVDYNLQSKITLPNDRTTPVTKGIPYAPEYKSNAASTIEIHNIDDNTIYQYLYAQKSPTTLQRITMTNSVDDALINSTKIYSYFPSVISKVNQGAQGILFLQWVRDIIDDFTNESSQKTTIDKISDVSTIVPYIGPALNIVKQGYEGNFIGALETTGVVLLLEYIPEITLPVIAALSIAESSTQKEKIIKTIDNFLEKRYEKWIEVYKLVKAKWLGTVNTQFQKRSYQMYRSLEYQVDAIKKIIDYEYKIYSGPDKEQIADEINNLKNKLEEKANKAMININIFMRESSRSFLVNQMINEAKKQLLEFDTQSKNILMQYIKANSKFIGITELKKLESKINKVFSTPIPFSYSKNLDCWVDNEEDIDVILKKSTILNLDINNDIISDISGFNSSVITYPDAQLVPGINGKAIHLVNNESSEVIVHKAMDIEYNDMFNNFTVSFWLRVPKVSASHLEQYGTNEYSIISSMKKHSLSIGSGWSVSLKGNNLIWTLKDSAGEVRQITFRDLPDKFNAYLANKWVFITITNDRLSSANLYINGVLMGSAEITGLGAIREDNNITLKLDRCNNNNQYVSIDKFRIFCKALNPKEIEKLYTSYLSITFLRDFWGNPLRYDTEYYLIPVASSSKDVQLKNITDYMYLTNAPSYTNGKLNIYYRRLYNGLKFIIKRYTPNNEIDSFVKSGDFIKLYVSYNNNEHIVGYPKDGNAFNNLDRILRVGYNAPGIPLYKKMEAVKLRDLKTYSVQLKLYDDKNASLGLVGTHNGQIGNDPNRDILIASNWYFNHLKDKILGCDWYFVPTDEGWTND
Experiment: ELISA, TeNT captured with cAb-TT2, unlabelled binder
measured_attribute: EC resulting in A450 0.15 (ng/mL)
Report only the number, with the unit ng/mL understood.

Consider the reported EC resulting in A450 0.15 for these binders:
[
  {
    "binder": "SVT13L (VHH) VHH: QVQLQESGGGLVQAGGSLRLSCAVSGTNFDDYAIGWFRQAPGKRREAVACISKTDGVTRYGNGVKGRFTISSDEARNTVFLQMNDLKDEDTAIYYCIGDFKSCGMGYKPIDHWGRGIQVTVSS",
    "measured_attribute": "EC resulting in A450 0.15",
    "unit_text": "ng/mL",
    "test_result": 4.1
  },
  {
    "binder": "SVT16L (VHH) VHH: QVQLQESGGGSVQAGDSLRLSCAASGRTISNYAMGWFRQAPGKQREFVAAISRSDNTYYTDSVKGRFTISRDNAKNTLYLQMNSLKPEETAVYYCAADPNLMYESKWKYRALEAWGQGTLVTVSS",
    "measured_attribute": "EC resulting in A450 0.15",
    "unit_text": "ng/mL",
    "test_result": 3.2
  },
  {
    "binder": "SVT15L (VHH) VHH: QVQLQESGGGLVQTGGSLRLSCRASGRAFANYHFGWFRQAPGKDREFVASISWKGGSTYYANFALGRFTSSVDRAESSVYLQMSGLTPEDTATYYCAAHDGGDWNYHTGMDYWGKGILVTVSS",
    "measured_attribute": "EC resulting in A450 0.15",
    "unit_text": "ng/mL",
    "test_result": 5.7
  }
]

Note: attention shifts to another entry.
Qu. Please look at this binder and report its EC resulting in A450 0.15: SVT15L-3FW4M (VHH) VHH: QVQLQESGGGLVQTGGSLRLSCRASGRAFANYHFGWFRQAPGKDREFVASISWKGGSTYYANFALGRFTSSVDRAESSVYLQMSGLTPEDTATYYCAAHDGGDWNYHTGMDYWGQGTQVTVSS
Ans. 9.8
